Please respond with reported Relative Activity (%) for every item in the list.
system: purified enzyme MTA (aminotransferase); test: Specificity for amino donor, 7-methoxy-2-tetralone as amino acceptor (Example 3); assay type: biochemical, Pseudomonas fluorescens KNK08-18; conditions: amino donor varied, 14 mM (racemic 28 mM); acceptor 14 mM 7-methoxy-2-tetralone; 30° C., 1 hour; activity with (S)-α-phenethylamine is 100
One number for each entry, in %.

CC(C)N | 10
CCCCN | 7
C[C@H](N)C(=O)O | 20
CCCN | 6
CCCCC(N)CC (racemic) | 19

Quick batch: Relative Activity (%) for everything below.
1. CC(C)CN
2. CCCCCN
3. CC(N)CCc1ccccc1 (racemic)
4. NCCC(=O)O
5. NCc1ccccc1
6. CCCCCC(C)N (racemic)
7. NCCCCC(N)C(=O)O (racemic)
8. CCC(C)N (racemic)

### Response
8
11
90
0
35
93
0
48

* * *

system: purified enzyme MTA (aminotransferase); experiment: Specificity for amino acceptor, (S)-α-phenethylamine as donor (Examples 5 and 6); format: biochemical, Pseudomonas fluorescens KNK08-18; details: Table 3: amino acceptor varied, 14 mM; donor 14 mM (S)-α-phenethylamine; 30° C., 1 hour; activity with pyruvic acid is 100
Please respond with reported Relative Activity (%) for every item in the list.
One number for each entry, in %.

Quick batch: Relative Activity (%) for everything below.
1. CC(=O)C(=O)O [Pyruvic Acid, reference compound]
2. CCC=O [Propionaldehyde]
3. O=CC(=O)O [Glyoxylic Acid]

### Response
1. 100
2. 5
3. 99

* * *

system: purified enzyme MTA (aminotransferase); test: Specificity for amino donor, pyruvic acid as acceptor, dabsylated alanine quantified (Example 4); format: biochemical, Pseudomonas fluorescens KNK08-18; details: amino donor varied, 14 mM; acceptor 14 mM pyruvic acid; pH 7.5, 30° C., 1 hour; activity with (S)-α-phenethylamine is 100
Please respond with reported Relative Activity (%) for every item in the list.
One number for each entry, in %.

NCCC(=O)O | 0

Quick batch: Relative Activity (%) for everything below.
1. NCCCCN
2. NCCS(=O)(=O)O

### Response
[0, 0]

Quick batch: Relative Activity (%) for everything below.
1. NCCCCC(N)C(=O)O (racemic)
2. C[C@H](N)c1ccccc1 [(S)-α-phenethylamine, reference compound]

### Response
1. 0
2. 100

* * *

Please respond with reported Relative Activity (%) for every item in the list.
test system: purified enzyme MTA (aminotransferase); assay: Specificity for amino acceptor, (S)-α-phenethylamine as donor (Examples 5 and 6); type: biochemical, Pseudomonas fluorescens KNK08-18; conditions: Table 4: amino acceptor varied; same manner as in Example 5, donor (S)-α-phenethylamine
Give bare numbers, in %.

CCCCCC(C)=O | 7
CC(=O)CCc1ccccc1 | 33
O=C1CCN(Cc2ccccc2)C1 | 20

Quick batch: Relative Activity (%) for everything below.
1. COc1ccc2c(c1)CC(=O)CC2
2. CC(=O)c1cccc(C(F)(F)F)c1
3. CC(=O)c1ccc(Cl)cc1
4. CC(=O)c1cccnc1
5. CC(=O)c1cnccn1
6. COc1cccc(C(C)=O)c1
7. COCC(C)=O

### Response
1: 10; 2: 40; 3: 30; 4: 10; 5: 100; 6: 10; 7: 13

Quick batch: Relative Activity (%) for everything below.
1. O=C1CCc2ccccc2C1
2. CC(=O)c1cccc(O)c1 [3′-Hydroxyacetophenone]

### Response
[17, 3]
